Biological target: T1, SARS-CoV-2 NTD (1-290) (SARS-CoV-2, UniProt P0DTC2 14-290)
T1 construct: range 1-290
Assay: BLI, 1:1 model
pKd: −log10 of the molar value.
Items are presented alongside their recorded pKd.
parameter: pKd

binder="COV_2028 (antibody, V domains shown, human IgG1) VH: QVQLQESGPGLVKPSGTLSLTCVVSGGSISSSNWWSWVRQPPGKGLEWIGEIYHSGSTNYNPSLKSRVTISVDKSKNQFSLRLTSVTAADTAVYYCARGWNYDYWGQGTLVTVSS VL: QSALTQPASVSGSPGQSITIACTGTSSDVGSYNLVSWYQQHPGKAPKLMIYEVSKRPSGLSNRFSGSKSGNTASLTISGLQAEDEADYYCYSYAGSSTWVFGGGTKLTVL" parameter=pKd reported_value=10.39
binder="COV_2103 (antibody, V domains shown, human IgG1) VH: EVQLVESGGGVVQPGRSLRLSCGASGFTFSSYGIHWVRQAPGKGLDWVAVIWHDGSQKYYGDSVKGRFTISRDNSKNTLYLQMNRLRAEDTAVYYCARDSGDDYDSSGYPIGNAFDLWGQGTMVTVSS VL: DIQMTQSPSTLSASVGDRVTITCRASQFINSWLAWYQQKPGKAPKLLIYKASSLETGVPSRFSGSGSGTEFTLTISSLQPDDFATYYCQQYNTYSFTFGPGTKVDIK" parameter=pKd reported_value="> 12.00"
binder="COV_2054 (antibody, V domains shown, human IgG1) VH: EVQLVESGGGVLQPGRSLRLSCAASGFTFNNYALHWVRQAPGKGLEWVAVISYDGSSKYYADSVRGRLTISRDNSRNTLYLQMNSLRPEDTAIYYCARDGDGLWLGESFYFDDWGQGTLVTVSS VL: DIQMTQSPSTLSASVGDRVIITCRASQSISSWLAWYQQKPGKAPKLLIYEASTLQSGVPSRFSGSGSGTEFTLTISSLQPDDSATYYCQQYNSYPVHFSQGTKLEIK" parameter=pKd reported_value="> 12.00"
binder="COV_2035 (antibody, V domains shown, human IgG1) VH: QVQLVQSGAEVKKPGASVKVSCKVSGYTLPELSIHWVRQAPGKGLEWLGGFDPEDGKIIYAQKFQGRVTMTEDTSTDTAYMELSSLRSEDTAVYYCATSPAVVERGWFDPWGQGTLVTVSS VL: QSALTQPPSASGSPGQSVTISCTGTSSDVGGYNYVSWYQQHPGKAPKLMIYEVSKRPSGVPDRFSGSKSGNMASLTVSGLQAEDEANYYCSSYAGSKRVFGGGTKLTVL" parameter=pKd reported_value="> 12.00"

Every entry's value here was drawn from patent US20240101645A1.
